Each recorded value in this set is attributed to patent US6737383B1.

System: wild oat
EXPERIMENT: Test B pre/postemergence wild oat
Type: in vivo, Avena fatua
CONDITION_DETAILS: Preemergence, Rate 250 g/ha; scale of 0 to 10 where 0 is no effect and 10 is complete control
Below: a set of entries, each annotated with reported Plant response rating, Wild oats.
READOUT_KIND: Plant response rating, Wild oats

CHEMICAL_STRING: CC(C)N(C(=O)n1oc(=O)n(-c2ccc(Cl)cc2Cl)c1=O)c1ccc(F)cc1
ASSAYED_SYSTEM: wild oat
RESULT: 0
--
CHEMICAL_STRING: CCN(CC)C(=O)n1oc(=O)n(-c2cc(Cl)cc(Cl)c2)c1=O
ASSAYED_SYSTEM: wild oat
RESULT: 0
--
CHEMICAL_STRING: CC(C)N(C(=O)n1oc(=O)n(Cc2cccs2)c1=O)c1ccc(F)cc1F
ASSAYED_SYSTEM: wild oat
RESULT: 4
--
CHEMICAL_STRING: CCN(Cc1ccccc1)C(=O)n1oc(=O)n(-c2c(C)cccc2C)c1=O
ASSAYED_SYSTEM: wild oat
RESULT: 0
--
CHEMICAL_STRING: COc1ccccc1Cn1c(=O)on(C(=O)N(c2ccccc2)C(C)C)c1=O
ASSAYED_SYSTEM: wild oat
RESULT: 4
--
CHEMICAL_STRING: CCN(CC)C(=O)n1oc(=O)n(-c2c(C)cccc2C)c1=O
ASSAYED_SYSTEM: wild oat
RESULT: 0
